Where do the numbers come from? From patent US7749981B2.

System: washed human platelets
Assay overview: Inhibition of ADP-induced platelet aggregation in washed human platelets
Format: cell-based
Test settings: read-out: PLATELET DATA IC50 (uM) Washed Platelets; washed human platelets; agonist challenge (ADP) typically 1-5 μM; average of two experiments or more
Friendly reminder: IC50 below 0.09 µM is TRUE, at or above is FALSE.

Record excerpt, results attached:
CCNC(=O)Nc1ncnc2c1ncn2C1CC(COCC(=O)O)C2OC(C=Cc3ccccc3)OC21 (stereo not drawn) [Compound 189]    FALSE
CCNC(=O)Nc1ncnc2c1ncn2C1OC(COCc2ccccc2C(=O)O)C2O[C@@H](c3ccccc3)OC21 (stereo partly drawn) [Compound 108]    FALSE
CCNC(=O)Nc1ncnc2c1ncn2C1OC(COCc2ccccc2C(=O)O)C2O[C@H](c3ccccc3)OC21 (stereo partly drawn) [Compound 107]    TRUE
CCNC(=O)Nc1ncnc2c1ncn2C1CC(CNC(=O)c2ccccc2C(=O)O)C2OC(C=Cc3ccccc3)OC21 (stereo not drawn) [Compound 239]    TRUE
CCNC(=O)Nc1ncnc2c1ncn2C1CC(COCc2ncccc2C(=O)O)C2OC(/C=C/c3ccccc3)OC21 (stereo not drawn) [Compound 130]    TRUE

Okay, next one:
INPUT: # TODO verify IC50 < 0.09 µM strictly for this compound: CCNC(=O)Nc1ncnc2c1ncn2C1OC(C(=O)N2CCC[C@H]2C(=O)O)C2OC(c3ccccc3)OC21 (stereo in doubt) [Compound 69]
OUTPUT: FALSE
